// provenance: patent US20140357713A1

- Test system: Pseudomonas aeruginosa
- METHOD_DESCRIPTION: Extended time kill study, Example 34 (0 to 24 h)
- Assay type: cell-based
- TEST_CONTEXT: 1×MIC, time 0
Counter-ions that a name gives are not always drawn.
Give measured Viable counts, Pseudomonas aeruginosa time kill study for each item. Keep answers brief.
Numbers only, in Log10 CFU/mL.

Solved entries (count: 2):
# COMPOUND, TARGET_UNDER_TEST, REPORTED_MEASUREMENT
rows = [
    ("CCCCCCCCCCCCOC(=O)C(C)NCCN(CC)CC.Cl (centres unmarked) [Nex-62]", "Pseudomonas aeruginosa", 5.20),
    ("CCCCCCCCCCCCOC(=O)C(C)NCCO.Cl (centres unmarked) [Nex-61]", "Pseudomonas aeruginosa", 5.28),
]

Record Viable counts, Pseudomonas aeruginosa time kill study for all entries; do not skip any.
1. CCCCCCCCCCCCOC(=O)C(C)NC(C)C.Cl (centres unmarked) [Nex-60]
2. CCCCCCCCCCCCOC(=O)C(C)N(C)C (centres unmarked) [Nex-05, hydrochloride]

Outgoing:
5.30
5.30

Incoming: Could you share which Viable counts, Pseudomonas aeruginosa time kill study value was measured for CCCCCCCCCCCCOC(=O)C(C)NC.Cl (centres unmarked) [Nex-59] ?
Outgoing: 5.18
